Species: Homo sapiens
Assay: Antiplatelet activity in platelet rich plasma (unknown origin) assessed as inhibition of collagen-induced platelet aggregation incubated for 5 mins by aggregometer analysis
Format: functional
experimental.readout: pIC50
Expect pIC50 as a plain number equal to -log10 of the molar concentration.

Query: Quickly give me recorded pIC50 for CC(=O)Oc1ccccc1C(=O)O
Reply: 5.35

---

Assay: Cytotoxicity against mouse Peritoneal macrophages assessed as LDH release by LDH assay
Format: toxicity, cell-based, Peritoneal macrophage
Conditions: peritoneal macrophages
experimental.readout: CC50

Query: Quickly give me recorded CC50 for O=C1Nc2ccccc2C1Cc1cccnc1 (stereo unspecified)
Reply: > 100 µM

---

Molecular target: Glycogen synthase kinase-3 beta (Homo sapiens)
Sequence (P49841 whole entry, the tested form may be a part): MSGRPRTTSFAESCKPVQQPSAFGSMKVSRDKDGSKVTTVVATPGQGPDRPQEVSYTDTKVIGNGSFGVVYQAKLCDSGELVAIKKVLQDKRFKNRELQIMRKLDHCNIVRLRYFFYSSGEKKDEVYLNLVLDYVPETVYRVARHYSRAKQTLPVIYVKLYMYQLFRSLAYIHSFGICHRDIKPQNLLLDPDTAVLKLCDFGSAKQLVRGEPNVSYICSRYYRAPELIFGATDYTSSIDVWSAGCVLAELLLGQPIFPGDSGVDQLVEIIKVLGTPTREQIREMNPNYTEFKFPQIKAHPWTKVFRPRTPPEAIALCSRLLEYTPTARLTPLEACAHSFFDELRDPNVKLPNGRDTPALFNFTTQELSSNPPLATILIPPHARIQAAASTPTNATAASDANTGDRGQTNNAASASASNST
Experiment: Inhibition of recombinant human GSK3beta […] assessed as reduction in human muscle glycogen synthase type 1 fragment phosphorylation using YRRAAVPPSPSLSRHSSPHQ(pS)EDE as substrate in presence of ATP incubated for 60 mins by ADP-Glo kinase assay
Listed next: entries and their corresponding log10 of IC50.
The figures below represent log10 of IC50, where IC50 is stated in µM.

Observe how each entry below is paired with its result.
Query: Quickly give me recorded log10 of IC50 for CC(=O)Nc1ccc2c(c1)/C(=C\c1ccc(O)cc1)C(=O)N2
Reply: 1.54

Query: Quickly give me recorded log10 of IC50 for CCOC(=O)c1[nH]ncc1/C=C1\C(=O)Nc2ccc([N+](=O)[O-])cc21
Reply: 0.25

---
Query: Quickly give me recorded log10 of IC50 for O=C1Nc2ccc([N+](=O)[O-])cc2/C1=C\c1cccnc1
Reply: 1.30

Query: Quickly give me recorded log10 of IC50 for O=C1Nc2ccccc2C1Cc1cccnc1 (centres undefined)
Reply: -2.38

Query: Quickly give me recorded log10 of IC50 for Cc1ccc(C(=O)CC2(O)C(=O)Nc3ccc(NC(=O)c4ccccc4)cc32)cc1 (centres undefined)
Reply: 0.24

Query: Quickly give me recorded log10 of IC50 for Cc1n[nH]cc1/C=C1/C(=O)Nc2ccccc21
Reply: 0.75

Query: Quickly give me recorded log10 of IC50 for Cn1cc(/C=C2/C(=O)Nc3ccccc32)cn1
Reply: 1.13

Query: Quickly give me recorded log10 of IC50 for Nc1ccc(CC2C(=O)Nc3ccccc32)cc1 (centres undefined)
Reply: 1.70

Query: Quickly give me recorded log10 of IC50 for COCC(=O)c1[nH]ncc1/C=C1\C(=O)Nc2ccccc21
Reply: 0.83

Query: Quickly give me recorded log10 of IC50 for COC(=O)Nc1ccc2c(c1)/C(=C\c1ccc([N+](=O)[O-])cc1)C(=O)N2
Reply: -0.46

---

Listed next: entries and their corresponding CC50.
Test system: Peritoneal macrophage
Assay: Cytotoxicity against mouse Peritoneal macrophages assessed as LDH release by LDH assay
Type: toxicity, cell-based
Conditions: peritoneal macrophage

Observe how each entry below is paired with its result.
Query: Quickly give me recorded CC50 for O=C1Nc2ccc(NC(=O)c3ccccc3)cc2/C1=C\c1ccc(O)cc1
Reply: > 100 µM

Query: Quickly give me recorded CC50 for COC(=O)Nc1ccc2c(c1)/C(=C\c1ccc(O)cc1)C(=O)N2
Reply: > 100 µM

Moving on to another compound below.
Query: Quickly give me recorded CC50 for O=C1Nc2ccccc2C12CC2c1ccccn1 (stereo not drawn)
Reply: > 100 µM
